Biological target: NA transporter (Rattus norvegicus, UniProt Q63380)
Construct: synaptosomes are isolated fresh from rat brains; from tissue; host or cells: rat hypothalamus synaptosomes (P2 fraction)
Sequence (Q63380 1-617): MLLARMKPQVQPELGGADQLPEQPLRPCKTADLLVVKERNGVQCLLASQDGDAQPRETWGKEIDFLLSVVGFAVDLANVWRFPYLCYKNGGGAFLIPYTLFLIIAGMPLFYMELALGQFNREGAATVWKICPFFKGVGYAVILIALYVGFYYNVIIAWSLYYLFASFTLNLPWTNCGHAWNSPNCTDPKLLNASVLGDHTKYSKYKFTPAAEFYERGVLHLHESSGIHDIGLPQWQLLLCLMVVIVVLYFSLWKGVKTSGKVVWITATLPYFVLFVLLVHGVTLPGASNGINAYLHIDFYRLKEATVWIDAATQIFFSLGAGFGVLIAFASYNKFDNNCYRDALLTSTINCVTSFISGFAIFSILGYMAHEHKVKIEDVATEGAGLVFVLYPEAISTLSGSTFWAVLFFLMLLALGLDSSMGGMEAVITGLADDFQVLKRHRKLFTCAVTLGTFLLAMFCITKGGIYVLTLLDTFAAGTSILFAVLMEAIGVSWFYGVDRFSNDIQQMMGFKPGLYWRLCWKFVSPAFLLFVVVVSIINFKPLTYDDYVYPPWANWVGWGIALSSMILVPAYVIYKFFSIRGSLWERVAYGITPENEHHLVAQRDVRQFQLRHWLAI
Assay: synaptosomal noradrenaline uptake inhibition (NA uptake inhibition)
Assay type: biochemical
Details: 1 μM in the assay, synaptosomes from rat hypothalamus; hydrochloride
Method: In order to carry out these in vitro studies, synaptosomes are isolated fresh from rat brains. […] For this purpose IC50 values are obtained, which can be converted to inhibitor constants (Ki) according to the “Cheng-Prusoff equation” (Y. C. Clieng and W. H. Prusoff (1973) Biochem. Pharmacol. 22, 3099-3108). […] Km values were calculated according to Lineweaver and Burk (H. Lineweaver and D. Burk (1934) J. Am. Chem. Soc. 56, 658-666). […]
measured_endpoint: NA Uptake Inhibition at 1 μM (%)
Give bare numbers, in %.

A selection of reference data follows.
compound	system_under_test	endpoint_unit	NA Uptake Inhibition at 1 μM
Cc1ccccc1C(C1CCCCC1(O)c1ccccc1)N(C)C.Cl (stereo not shown) [Example 81]	NA transporter (Rattus norvegicus, UniProt Q63380)	%	66
CN(C)C(c1ccccc1)C1CCCCC1(O)c1ccc(Cl)c(Cl)c1.Cl (single isomer, unassigned; (+)) [+19]	NA transporter (Rattus norvegicus, UniProt Q63380)	%	62
Cc1ccccc1C(C1CCCCC1(O)c1ccccc1)N(C)C.Cl (stereo not shown) [Example 66]	NA transporter (Rattus norvegicus, UniProt Q63380)	%	15

Input line: If you can, please state the reported NA Uptake Inhibition at 1 μM value of CN(C)C(c1ccccc1)C1CCCCC1(O)c1ccc(Cl)c(Cl)c1.Cl (single isomer, unassigned; (-)) [−19] .
Output line: 36
